assay: chemical genetic growth profiling, strain panel (AID 1159580);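 note: tested at 20 µM; growth read once vehicle control cultures reached saturation at 30 °C; 1 = growth at the plate median or of vehicle wells; lower values mean less growth of the strain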; settings: S. cerevisiae deletion strains, growth OD, locus YDR226W, strain ADK1
Hit rate of the full screen: of about 5,500 compounds, about 2,000 (36%) were called active. Not shown: some 18% with an inconclusive outcome. Cut-off read from the data, not from the text of the source: active = normalized growth mostly below about 0.91 (no sharp cut-off); inconclusive = no clear call, values can overlap the other calls; inactive = mostly above about 0.92. The list shows a part of the results.
Write down the outcome that applies. Available outcomes: active, inactive

Query :: Field: outcome | Entry: CCCCCCCCCCCCSc1ncn[nH]1
Result :: inactive

Query :: Outcome logged for O=C(NC(=S)NNc1ncc(C(F)(F)F)cc1Cl)c1cccs1 in this assay:
Result :: active

Query :: Test call, this molecule: COc1ccccc1N1CCN(C(=O)C(C)c2ccc(CC(C)C)cc2)CC1 (stereo not drawn)
Result :: inactive

* * *

Task for the reader: assign each of the following molecules its reported normalized growth.
assay: chemical genetic growth profiling, strain panel (AID 1159580);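 note: tested at 20 µM; growth read once vehicle control cultures reached saturation at 30 °C; 1 = growth at the plate median or of vehicle wells; lower values mean less growth of the strain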; conditions: S. cerevisiae deletion strains, growth OD, locus YNL161W, strain CBK1, hits give low values
About 2,000 (36%) of roughly 5,500 compounds were called active. Inconclusive results (about 18%) are left out. The list shows a part of the results.
Please respond with just the number, no unit label.

Query :: Look at this molecule and give its reported normalized growth. CCOC(=O)NC(=S)Nc1ccc(C(C)(C)C)cc1NC(=S)NC(=O)OCC
Result :: 0.986

Query :: What value of measured normalized growth is listed for O=C(Nc1ccc(SC(F)(F)F)cc1)Nc1ccc(Oc2cccc(C(F)(F)F)c2)nc1 ?
Result :: 0.984

Query :: Recorded normalized growth of C/C(=N/NC(N)=S)c1csc(-c2ccccc2)n1 , please.
Result :: 0.925

Query :: Quick check: normalized growth of O=C(Nc1cc2ccccc2s1)N1CCN(Cc2c(F)cccc2Cl)CC1 ?
Result :: 0.988

Query :: Param item = O=C1Nc2ccccc2/C1=C\c1cccc2ccccc12 ; retrieve measured normalized growth.
Result :: 0.96

Query :: Recorded normalized growth of Cc1cc(-c2onc(C)c2C(=O)Sc2ccccc2)no1 , please.
Result :: 0.947

Query :: Record request: normalized growth value, item COc1ccc(Br)c(C(=O)/C(C#N)=C/c2cccs2)c1
Result :: 0.836

Query :: Given the entry O=C(NC(=S)NNc1ncc(C(F)(F)F)cc1Cl)c1cccs1 , report its measured normalized growth.
Result :: 0.533

Query :: Can you share its normalized growth? I mean this molecule: CCCCCCCCCCCCSc1ncn[nH]1
Result :: 0.981

Query :: Would you kindly share the measured normalized growth for CC(C)/C(=N/OC(=O)c1ccc([N+](=O)[O-])cc1)c1ccccc1 ?
Result :: 0.378

Query :: Report normalized growth for N/C(=N/OC(=O)c1ccc([N+](=O)[O-])cc1)c1c(Cl)cccc1Cl please.
Result :: 0.954

Query :: Fill in the blank: the reported normalized growth of OC(COCc1ccccc1)Cn1c2ccccc2c2ccccc21 (stereo not given) is ____.
Result :: 0.947

Query :: Report normalized growth for O=C1/C(=C/c2c[nH]c3ccccc23)CSc2ccccc21 please.
Result :: 0.991

Query :: Consider the molecule shown here: O=c1[nH][nH]c(=O)n1CCCc1cc2cccc3ccc4cccc1c4c32 What is its recorded normalized growth?
Result :: 0.993

Query :: Fill in the blank: the reported normalized growth of N/C(=N/OC(=O)c1cnn(-c2ccc([N+](=O)[O-])cc2)c1C(F)(F)F)c1ccc(Cl)cc1 is ____.
Result :: 0.979

Query :: Consider the molecule shown here: CC(C)(C)NC(=S)N/N=C\c1cc(Br)c(O)c(Br)c1 What is its recorded normalized growth?
Result :: 0.969

Query :: Recorded normalized growth for CCn1nc(C)cc1C(=O)Sc1cccc(Br)c1 , please?
Result :: 0.937

Query :: What measured normalized growth goes with N#Cc1ccc2[nH]cc(CCN(Cc3ccccc3)Cc3ccccc3)c2c1 ?
Result :: 0.993

Query :: Please look up its normalized growth: O=S(=O)(Nc1ccccc1Sc1c(Cl)cncc1Cl)c1ccc(Cl)cc1
Result :: 0.98

Query :: Consider the molecule N#Cc1nccnc1N1CCN(C(=O)Nc2cc(Cl)cc(Cl)c2)CC1 and give its measured normalized growth.
Result :: 0.961

Query :: Request the reported normalized growth associated with O=C1Nc2ccccc2/C1=C\c1c[nH]c2ccccc12
Result :: 0.639

Query :: If you can, please state the reported normalized growth value of O=S(=O)(c1cc(Cl)ccc1Cl)N1CCc2ccccc2C1 .
Result :: 0.981

Query :: If you can, please state the reported normalized growth value of Cc1ccc(Sc2ncccc2NS(=O)(=O)c2ccc(Cl)cc2)cc1 .
Result :: 0.929

Query :: Reported normalized growth for N/C(=N/OC(=O)Nc1cccc(C(F)(F)F)c1)c1ccc(OC(F)(F)F)cc1 : what is it?
Result :: 0.996

Query :: Which normalized growth value belongs to O=C1OC(c2ccccc2)=C/C1=C/c1ccccc1 ?
Result :: 0.945

Origin of values: PubChem BioAssay AID1159580
